As shown below, each of these molecules has a reported growth value.
Tested on: NCI-H226 lung
Assay: NCI-60 one-dose screen, 48 h (100 = growth as untreated, 0 = no growth, -100 = all killed)
Details: 10 µM unless noted
The panel holds about 83,000 compounds, 20% with a hit somewhere; the sample as a whole holds those more often.
reported.metric: growth (%)

INSERT INTO results (molecule, reported_metric, result_unit, readout_number) VALUES
  ('CC[C@]12C=CCN3CC[C@@]4(c5ccc(OC)cc5N(C)[C@H]4[C@@](O)(C(=O)OC)[C@@H]1OC(=O)CCN1CCc4ccccc4C1)[C@@H]32', 'growth', '%', 98.9),
  ('COc1ccc(/C(=N\NC(N)=S)c2ccc(Cl)cc2)cc1OC', 'growth', '%', 51.6),
  ('CCOC(=O)c1c(N)c(C#N)cn1Cc1ccc(Cl)cc1Cl', 'growth', '%', 85.1),
  ('CCn1c2ccc(/C=N/N(C)S(=O)(=O)CCN(C)C)cc2c2cc(/C=N/N(C)S(=O)(=O)CCN(C)C)ccc21', 'growth', '%', 40.8),
  ('COc1ccc(C2c3[nH]c4ccc(Cl)cc4c3CCN2c2oc(CO)nc2C#N)cc1 (centres undefined)', 'growth', '%', 60),
  ('C#Cc1cc(C(=O)Nc2ccc(CNCCN3CCOCC3)c(C(F)(F)F)c2)ccc1C', 'growth', '%', 95.4),
  ('CN(C)S(=O)(=O)c1ccc(-c2nc(C(Cl)Cl)nc3cc(-c4ccc(F)cc4)nn23)cc1', 'growth', '%', 45.4),
  ('COc1cc2cc(Oc3ccc(NC(=O)c4cc(C(F)(F)F)cc(C(F)(F)F)c4)cc3)c(C)nc2cc1OCCN1CCOCC1', 'growth', '%', 70.3),
  ('CN1CCN(Cc2ccc(NC(=O)c3cncc(C#Cc4cnc5ccc(O[C@@H]6CCOC6)nn45)c3)cc2C(F)(F)F)CC1', 'growth', '%', -60.7),
  ('CCCCSC1=C(Cl)CN(c2ccc(Cl)cc2)C1=O', 'growth', '%', 96.1),
  ('O=C(/C=C/c1ccccc1Cl)Nc1ncc(Cc2cc(Cl)ccc2Cl)s1', 'growth', '%', 39.4),
  ('Cc1ccc2c(n1)C(=O)C(Cl)=C(Nc1cccc(C(=O)OC(C)(C)C)c1)C2=O', 'growth', '%', 82.8),
  ('COc1ccc(-c2cc(-c3ccc(N(C)C)cc3)n3c(n2)nc2ccccc23)cc1', 'growth', '%', 60.8),
  ('N#Cc1nc(-c2ccc(Cl)cc2)oc1N1CCC(S(=O)(=O)N2CCOCC2)CC1', 'growth', '%', 94.6),
  ('COc1ccc(OC)c(NC(=O)CCCCCCNC(=O)C(O)(O)C(F)(F)F)c1', 'growth', '%', 78.7),
  ('CCN(CC)c1ccc(/C=N/NC(=O)c2ccc(NS(C)(=O)=O)cc2)cc1', 'growth', '%', 51.8),
  ('O=C(/C=C/c1cccc(Br)c1)c1cccc(OCCCCOc2cccc(C(=O)/C=C/c3cccc(Br)c3)c2)c1', 'growth', '%', 103),
  ('NCCNC(=O)c1cccc(COc2ccccc2NC(=O)c2cc(Br)c(Br)[nH]2)c1', 'growth', '%', 95.4),
  ('O=C1Nc2ccccc2/C1=N\c1nnc(-c2ccccc2)o1', 'growth', '%', 88.7),
  ('CCc1cc2c(cc1Cl)nc1c(=O)[nH]c(=O)nc-1n2CCOCC(C)(C)C', 'growth', '%', 41.2),
  ('O=C1[C@H]2Cc3c([nH]c4ccccc34)[C@H](c3ccc(Cl)cc3)N2C(=O)CN1C1CCN(CC2CCCCC2)CC1', 'growth', '%', 88.2),
  ('CSc1ccc(/C(=N/N=C(N)N)c2ccc(Cl)cc2)cc1', 'growth', '%', 27),
  ('Cc1ccc(S(=O)(=O)NCCCNc2nc(Nc3ccc(N4CCN(C)CC4)cc3)nc3ccsc23)cc1', 'growth', '%', 117),
  ('O=C(CCCCCCNC(=O)c1csc(Br)n1)NO', 'growth', '%', 79);
